Where a name gives a salt, the structure may show the parent alone.
measured-metric: melting point (°C)

I: Cc1ccncc1-n1ncc2c(=O)[nH]c(CC3CCCCC3)nc21 (as salt: sodium)
II: CCC(C)Cc1nc2c(cnn2-c2ccccc2C)c(=O)[nH]1 (racemic) (as salt: sodium)
input: Of I and II , whose reported melting point is numerically smaller? Returns: label corresponding to the selected item.
output: II

----------
Where a name gives a salt, the structure may show the parent alone.
measured-metric: melting point (°C)

These recorded examples may help you get a feel for the data.
compound: Cc1ccccc1-n1ncc2c(=O)[nH]c(CC3CCCCC3)nc21 (as salt: sodium) [Example 10]
display-unit: °C
melting point: 169
--
compound: CCC(C)Cc1nc2c(cnn2-c2cnccc2C)c(=O)[nH]1 (racemic) (as salt: sodium) [Example 39]
display-unit: °C
melting point: 149
--
compound: CC(C)Cc1nc2c(cnn2-c2ccccc2Cl)c(=O)[nH]1 (as salt: sodium) [Example 40]
display-unit: °C
melting point: 204

1: O=c1[nH]c(CC2C=CCC2)nc2c1cnn2-c1ccccn1 (centres unmarked) (as salt: sodium) [Example 17]
2: Cc1ccccc1-n1ncc2c(=O)[nH]c(CC(C)C(F)(F)F)nc21 (racemic) (as salt: sodium) [Example 36]
input: Response body: label of entry with the larger melting point; valid values 1 , 2 . Returns: label corresponding to the selected item.
output: 1
(1: 239 °C, 2: 160 °C)
